Data provenance: patent US12215162B2

target: T1, recombinant extracellular domain of human BAFF-R (Homo sapiens, UniProt Q96RJ3); test: Biacore analysis of binding affinity of humanized BAFF-R antibody variants
T1 construct: The antigen was commercial, recombinant extracellular domain of human BAFF-R; purchased
Below is a list of entries, each paired with its recorded kdis value.

| molecule | kdis [s⁻¹] |
| --- | --- |
| Humanized HC3 + LC2: humanized C90 variant, heavy chain variant 3 with light chain variant 2 (antibody, V domains shown) VH: EVQLQESGPGLVKPSETLSLTCSVSGDSITSGYWNWIRQPPGKGLEYIGYISYSGSTYYNPSLKSRVTISRDTSKNQYSLRLSSVTAADTALYYCASPNYPFYAMDYWGQGTRVTVSS VL: DIVLTQSPATLSLSPGERATLSCRASESVDNYGISFMNWFQQKPGQAPRLLIYAASNRATGIPARFSGSGSGTDFTLTISSLEPEDFAVYYCQQSKEVPWTFGGGTKVEIKRTV | 0.0037 |
| Humanized HC1 + LC2: humanized C90 variant, heavy chain variant 1 with light chain variant 2 (antibody, V domains shown) VH: QVQLQESGPGLVKPSQTLSLTCTVSGDSITSGYWNWIRQHPGKGLEYIGYISYSGSTYYNPSLKSRVTISRDTSKNQFSLKLSSVTAADTAVYYCASPNYPFYAMDYWGQGTLVTVSS VL: DIVLTQSPATLSLSPGERATLSCRASESVDNYGISFMNWFQQKPGQAPRLLIYAASNRATGIPARFSGSGSGTDFTLTISSLEPEDFAVYYCQQSKEVPWTFGGGTKVEIKRTV | 0.0023 |
| Humanized HC1 + LC3: humanized C90 variant, heavy chain variant 1 with light chain variant 3 (antibody, V domains shown) VH: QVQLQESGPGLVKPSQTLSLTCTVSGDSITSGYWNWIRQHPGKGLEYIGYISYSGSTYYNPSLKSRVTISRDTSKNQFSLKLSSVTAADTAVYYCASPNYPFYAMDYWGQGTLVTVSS VL: DIVMTQSPSSLSASVGDRVTITCRASESVDNYGISFMNWFQQKPGKAPKLLIYAASNLGSGVPSRFSGSGSGTDFTLTISSLQPEDFATYYCQQSKEVPWTFGQGTKVEIKRTV | 0.0021 |
| Humanized HC3 + LC3: humanized C90 variant, heavy chain variant 3 with light chain variant 3 (antibody, V domains shown) VH: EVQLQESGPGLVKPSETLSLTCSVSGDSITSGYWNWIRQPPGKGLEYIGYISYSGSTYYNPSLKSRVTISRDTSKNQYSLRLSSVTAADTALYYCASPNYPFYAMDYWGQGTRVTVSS VL: DIVMTQSPSSLSASVGDRVTITCRASESVDNYGISFMNWFQQKPGKAPKLLIYAASNLGSGVPSRFSGSGSGTDFTLTISSLQPEDFATYYCQQSKEVPWTFGQGTKVEIKRTV | 0.0023 |
| Humanized HC2 + LC1 (antibody, V domains shown) VH: EVQLQESGPGLVKPSQTLSLTCTVSGDSITSGYWNWIRQHPGKGLEYIGYISYSGSTYYNPSLKSRVTISRDTSKNQYSLKLSSVTAADTAVYYCASPNYPFYAMDYWGQGTLVTVSS VL: EIVLTQSPATLSLSPGERATLSCRASESVDNYGISFLNWFQQKPGQAPRLLIYAASNRATGIPARFSGSGSGTDFTLTISSLEPEDFAVYYCQQSKEVPWTFGGGTKVEIKRTV | 0.002 |
| Humanized HC1 + LC1 (antibody, V domains shown) VH: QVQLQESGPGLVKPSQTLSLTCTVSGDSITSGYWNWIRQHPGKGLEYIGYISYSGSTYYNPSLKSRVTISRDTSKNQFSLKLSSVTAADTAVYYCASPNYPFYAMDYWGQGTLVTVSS VL: EIVLTQSPATLSLSPGERATLSCRASESVDNYGISFLNWFQQKPGQAPRLLIYAASNRATGIPARFSGSGSGTDFTLTISSLEPEDFAVYYCQQSKEVPWTFGGGTKVEIKRTV | 0.0024 |
